assay: Measurement of phase transition temperature (liquid crystallinity temperature range); type: physicochemical; conditions: heated from 30° C. to 250° C., then cooled to 30° C.; polarization optical microscope
OBSERVATION TYPE: Liquid crystallinity temperature range

Challenge: Which Liquid crystallinity temperature range value belongs to "C=CC(=O)OCCCCCCOc1ccc(C(=O)Oc2ccc(C=NN=Cc3ccc(OC(=O)c4ccc(OCCCCCCOC(=O)C=C)cc4)c(OCC)c3)cc2OCC)cc1" ?
Response given: 150 °C or more

Challenge: Which Liquid crystallinity temperature range value belongs to "C=CC(=O)OCCCCCCOc1ccc(C(=O)Oc2ccc(C=NN=Cc3ccc(OC(=O)c4ccc(OCCCCCCOC(=O)C=C)cc4)c(C(=O)OCCOC(=O)C=C)c3)cc2)cc1" ?
Response given: 125 °C or more

Challenge: Which Liquid crystallinity temperature range value belongs to "C=CC(=O)OCCCCCCOc1ccc(C(=O)Oc2ccc(C=NN=Cc3cc(OC)c(OC(=O)c4ccc(OCCCCCCOC(=O)C=C)cc4)c(OC)c3)cc2)cc1" ?
Response given: 155 °C or more

Challenge: Which Liquid crystallinity temperature range value belongs to "C=CC(=O)OCCCCCCOc1ccc(C(=O)Oc2ccc(C=NN=Cc3ccc(OC(=O)c4ccc(OCCCCCCOC(=O)C=C)cc4)c(OCC)c3)cc2)cc1" ?
Response given: 175 °C or more

Challenge: Which Liquid crystallinity temperature range value belongs to "C=CC(=O)OCCCCOC(=O)Oc1ccc(C(=O)Oc2ccc(OC(=O)c3ccc(OC(=O)OCCCCOC(=O)C=C)cc3)c(C)c2)cc1" ?
Response given: 63 °C

Challenge: Which Liquid crystallinity temperature range value belongs to "C=CC(=O)OCCCCCCOc1ccc(C(=O)Oc2ccc(C=NN=Cc3ccc(OC(=O)c4ccc(OCCCCCCOC(=O)C=C)cc4)c(C(=O)OC)c3)cc2C(=O)OC)cc1" ?
Response given: 130 °C or more

Challenge: Which Liquid crystallinity temperature range value belongs to "C=CC(=O)OCCCCCCOc1ccc(C(=O)Oc2ccc(C=NN=Cc3ccc(OC(=O)c4ccc(OCCCCCCOC(=O)C=C)cc4)c(C(=O)OCCOCCC)c3)cc2)cc1" ?
Response given: 190 °C or more

Challenge: Which Liquid crystallinity temperature range value belongs to "C=CC(=O)OCCCCOc1ccc(C(=O)Oc2ccc(C=NN=Cc3ccc(OC(=O)c4ccc(OCCCCOC(=O)C=C)cc4)c(OCC)c3)cc2)cc1" ?
Response given: 170 °C or more
